Target: T1, LTα3 (soluble homotrimer) (UniProt P01374 35-205)
T1 construct: Coated on ELISA plates at 1 or 5 ug/ml; also called LTa3
T1 sequence (looked up): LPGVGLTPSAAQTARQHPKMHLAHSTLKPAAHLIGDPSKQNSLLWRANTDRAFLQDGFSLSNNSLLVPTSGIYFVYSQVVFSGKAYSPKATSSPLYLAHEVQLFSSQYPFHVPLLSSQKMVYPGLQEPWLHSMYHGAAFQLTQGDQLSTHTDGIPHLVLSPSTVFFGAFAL
Assay: ELISA on plate-coated LTα3 (1 or 5 ug/ml)
quantity-kind: binding result

binder="LT105 (P2E9.7) (antibody, IgG1, V domains shown, The humanized versions were tested only for solubility; also called mAb LT105) VH: DVQLQESGPGLVKPSQSLSLTCSVTGYSITSGYYWNWIRQFPGNKLEGMGYISYDGSNNYNPSLKNRISITRDSSKNQFFLKLNSVTAEDSGTYYCARDAYSYGMDYWGQGTSVTVSS VL: DIVLTQSPASLAVSLGQRATISCRASESVDNYGISFMHWYQQKPGQPPKLLIYRASNLESGIPARFSGSGSRTDFTLTINPVETDDVATFYCQQSNKDPYTFGGGTKLEIK" quantity_kind="binding result" value_measured="no binding"
binder="LT102 (P1G8.2) (antibody, IgG1, V domains shown, also called mAb LT102; LT012) VH: EVKLVESGGGLVKPGGSLKLSCAVSGFTFSDYYMYWIRQTPEKRLEWVATIGDGTSYTHYPDSVQGRFTISRDYATNNLYLQMTSLRSEDTALYYCARDLGTGPFAYWGQGTLVTVSA VL: DVLMTQTPRSLPVSLGDQASISCRSSQNIVHSNGNTYLEWYLQKPGQSPKLLIYKVSNRFSGVPDRFSGSGSGTDFTLKISRVEAEDLGVYYCFQGSHFPWTFGGGTKLEIK" quantity_kind="binding result" value_measured="no binding"
